Sourced from patent US4578498A

System: comedos
ASSAY METHOD TEXT: Comedolytic activity on tar-induced comedos of rabbit ears
Format: in vivo, albino rabbits
CONDITION SUMMARY: Oryctolagus cuniculus, 336 h; concentration 0.1%, topical, rabbit ear, two weeks; read-out: Comedolytic activity in % (decrease in number of comedos vs control ear)
Label condition met when inhibition in vivo at 0.1 % is at or above 60%; otherwise label condition not met.

SMILES TEXT	ASSIGNED CLASS
C/C(=C\c1ccc(C(=O)O)cc1)c1cc2c(cc1CC(C)C)C(C)(C)CCC2(C)C	condition met
CCOC(=O)c1ccc(/C=C(\C)c2cc3c(cc2C(C)C)C(C)(C)CCC3(C)C)cc1	condition met
CCCc1cc2c(cc1/C(C)=C/c1ccc(C(=O)O)cc1)C(C)(C)CCC2(C)C	condition not met
CCc1cc2c(cc1/C(C)=C/c1ccc(C(=O)O)cc1)C(C)(C)CCC2(C)C	condition not met
C/C(=C/c1ccc(C(=O)O)cc1)c1cc2c(cc1C)C(C)(C)CCC2(C)C	condition not met
CCCCc1cc2c(cc1/C(C)=C/c1ccc(C(=O)O)cc1)C(C)(C)CCC2(C)C	condition met
C/C(=C\c1ccc(C(=O)O)cc1)c1cc2c(cc1C)C(C)(C)CCC2(C)C	condition met

Continue with the compound presented below.
Record CCOC(=O)c1ccc(/C=C(\C)c2cc3c(cc2C)C(C)(C)CCC3(C)C)cc1 ; criterion: inhibition in vivo at 0.1 % no lower than 60%. Met?
condition met

###

Tested on: white male New Zealand rabbits
CONDITION SUMMARY: rabbit, in vivo
METRIC NAME: Erythema
// response body must contain only the number

COMPOUND	METRIC NAME	REPORTED RESULT
C/C(=C\c1ccc(C(=O)O)cc1)c1cc2c(cc1CC(C)C)C(C)(C)CCC2(C)C [Example 8]	Erythema	1.4
CCc1cc2c(cc1/C(C)=C/c1ccc(C(=O)O)cc1)C(C)(C)CCC2(C)C [Example 5]	Erythema	2.0
CC1=C(/C=C/C(C)=C/C=C/C(C)=C/C(=O)O)C(C)(C)CCC1 [Vitamin A acid, reference compound]	Erythema	3.0
C/C(=C\c1ccc(C(=O)O)cc1)c1cc2c(cc1C)C(C)(C)CCC2(C)C [Example 2]	Erythema	2.8

Let's switch to this compound now.
Sample C/C(=C\c1ccc(C(=O)O)cc1)c1cc2c(cc1C(C)C)C(C)(C)CCC2(C)C [Example 7] — what was its Erythema?
3.0

###

System: tracheal epithelium
ASSAY METHOD TEXT: Elimination of keratinization in tracheal cultures (antitumor action)
Assay type: cell-based, hamster
CONDITION SUMMARY: Mesocricetus auratus, 240 h, read-out: ED50 (molar dose which suppresses keratinization in half the cultures)
METRIC NAME: IC50 (nM)
Respond numerically; units are nM and should not be typed.

Sample CC1=C(/C=C/C(C)=C/C=C/C(C)=C/C(=O)O)C(C)(C)CCC1 [Vitamin A acid, reference compound] — what was its IC50?
0.01
